Molecular target: 5-HT2A (Homo sapiens, UniProt P28223)
Sequence (P28223 whole entry): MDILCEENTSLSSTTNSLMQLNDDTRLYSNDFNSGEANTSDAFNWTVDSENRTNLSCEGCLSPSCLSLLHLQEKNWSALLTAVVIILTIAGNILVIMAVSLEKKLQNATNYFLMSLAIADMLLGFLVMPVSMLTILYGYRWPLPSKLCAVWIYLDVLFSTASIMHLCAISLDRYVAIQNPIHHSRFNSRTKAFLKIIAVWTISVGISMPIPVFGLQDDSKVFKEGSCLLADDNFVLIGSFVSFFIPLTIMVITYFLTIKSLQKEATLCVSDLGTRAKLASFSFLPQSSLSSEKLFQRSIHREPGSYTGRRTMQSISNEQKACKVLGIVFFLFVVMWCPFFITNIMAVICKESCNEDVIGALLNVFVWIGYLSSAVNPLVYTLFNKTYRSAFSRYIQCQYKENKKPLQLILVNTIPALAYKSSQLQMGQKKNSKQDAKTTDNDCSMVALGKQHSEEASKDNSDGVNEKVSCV
Assay: FLIPR Ca2+ flux agonist assay at 5-HT2A
Type: cell-based
Set-up: host or cells: HEK293
Measured pEC50 accompanies every entry in the list below.
Scale note: pEC50 = -log10(concentration in M).

Worked examples, 4 compounds total:
>>> test_value("CNCCc1c[nH]c2ccc(F)c(O)c12")
7.68
>>> test_value("Oc1cccc2[nH]cc(CCNCCF)c12")
7.33
>>> test_value("CCCNCCc1c[nH]c2ccc(F)c(O)c12")
7.92
>>> test_value("CN(C)CCc1c[nH]c2ccc(F)cc12 [Compound 5-F-DMT, reference compound]")
8.16

Turning to the following compound.
// CNCCc1c[nH]c2cc(C)cc(O)c12 : pEC50 value = 7.11

====

Test system: monoamine oxidase A and B (MAO-A and MAO-B)
Test: Stability in the presence of monoamine oxidases (human liver mitochondria preparation)
Set-up: dose or concentration left out as unconfirmed
Settings: human, human liver mitochondria, pH 7.4
READOUT_KIND: microsomal CLint (µL/min/mg)
Please give a number only; it is taken to be in µL/min/mg.

Past entries and their recorded results:
>>> test_value("CNCCc1c[nH]c2c(F)ccc(O)c12")
154
>>> test_value("CNCCc1c[nH]c2ccc(F)c(O)c12")
369
>>> test_value("NCCc1c[nH]c2cc(F)cc(O)c12")
76.8
>>> test_value("CCNCCc1c[nH]c2ccc(Cl)c(O)c12")
88.6
>>> test_value("CCNCCc1c[nH]c2ccc(C)c(O)c12")
26.1
>>> test_value("CNCCc1c[nH]c2cccc(O)c12")
124
>>> test_value("CCCNCCc1c[nH]c2ccc(F)c(O)c12")
272
>>> test_value("Oc1cccc2[nH]cc(CCNC3CC3)c12")
20.2

Summary for this molecule, NCCc1c[nH]c2c(F)ccc(O)c12 : microsomal CLint is 81.4

response.value for CC(C)n1cc(CCN(C)C)c2c(O)cc(F)cc21 (field: microsomal CLint) = 29.4

For record Oc1c(F)ccc2[nH]cc(CCNC3CC3)c12 the listed microsomal CLint is 63.9

====

Tested on: monoamine oxidase A and B (MAO-A and MAO-B)
Test: Stability in the presence of monoamine oxidases (human liver mitochondria preparation)
Conditions: human liver mitochondria preparation
READOUT_KIND: stability in the presence of MAO (in words)

>>> test_value("CCCN(CC)CCc1c[nH]c2ccccc12 [EPT, N-ethyl-N-propyltryptamine, reference compound]")
"more stable"
>>> test_value("CCN(C)CCc1c[nH]c2cccc(O)c12 [Compound 4-HO-MET, reference compound]")
"stable"
>>> test_value("NCCc1c[nH]c2cc(F)cc(O)c12 [Compound 31, 3-(2-aminoethyl)-6-fluoro-1H-indol-4-ol]")
"intermediate stability"
>>> test_value("CCNCCc1c[nH]c2ccc(Cl)c(O)c12 [Compound 38]")
"intermediate stability"
>>> test_value("CN(C)CCc1c[nH]c2cccc(O)c12 [Psilocin, psilocin, reference compound]")
"stable"

Record summary for CCN(C)CCc1c[nH]c2ccccc12 [MET, N-methyl-N-ethyltryptamine, reference compound] : reported stability in the presence of MAO (in words) = more stable

Reported stability in the presence of MAO (in words) ( Oc1cccc2[nH]cc(CCNC3CC3)c12 [Compound 4] ) = intermediate stability

Record summary for CC(C)NCCc1c[nH]c2ccc(F)c(O)c12 [Compound 35] : reported stability in the presence of MAO (in words) = intermediate stability

Lab note: CCNCCc1c[nH]c2ccc(F)c(O)c12 [Compound 28] gave stability in the presence of MAO (in words) of intermediate stability

Looking up CC(C)n1cc(CCN(C)C)c2c(O)cc(F)cc21 [Compound 10] , I found its stability in the presence of MAO (in words) recorded as intermediate stability

Oc1c(F)ccc2[nH]cc(CCNC3CC3)c12 [Compound 27] yielded stability in the presence of MAO (in words) of intermediate stability

// stability in the presence of MAO (in words) lookup, compound = NCCc1c[nH]c2c(F)ccc(O)c12 [Compound 32, 3-(2-aminoethyl)-7-fluoro-1H-indol-4-ol] , result: intermediate stability

====

Test system: monoamine oxidase A and B (MAO-A and MAO-B)
Test: Stability in the presence of monoamine oxidases (human liver mitochondria preparation)
Set-up: dose or concentration left out as unconfirmed
Settings: human, human liver mitochondria, pH 7.4
half-life for assorted molecules
API: value field is a number in min; no unit string.

Below, each entry is followed by its recorded half-life result.
>>> test_value("NCCc1c[nH]c2c(F)ccc(O)c12")
28.4
>>> test_value("NCCc1c[nH]c2cccc(O)c12")
70.5

Read the next record carefully.
Just so you know, measured half-life for CCNCCc1c[nH]c2ccc(Cl)c(O)c12 came out at 26.1

====

Assay: Stability in mouse brain homogenate
Assay type: in vitro ADME, male CD-1 mice
Conditions: male, CD-1; mouse brain homogenate, 1 μM, 37° C.
READOUT_KIND: half-life at 1 µM (min)
Report the figure in min without appending any unit label.

>>> test_value("NCCc1c[nH]c2c(F)ccc(O)c12")
29

Lab note: measured half-life at 1 µM of CC(C)NCCc1c[nH]c2cccc(O)c12 was 163

Query CNCCc1c[nH]c2cccc(O)c12 yields half-life at 1 µM of 14

# half-life at 1 µM of CNCCc1c[nH]c2cc(C)cc(O)c12 = 15.5

# compound Oc1c(F)ccc2[nH]cc(CCNC3CC3)c12 ; its half-life at 1 µM = 69.6

get_value(item= NCCc1c[nH]c2cccc(O)c12 , readout=half-life at 1 µM) returns 12.6

Per the record, CNCCc1c[nH]c2c(F)ccc(O)c12 has half-life at 1 µM of 21.7

Value of measured half-life at 1 µM for the entry C=CCNCCc1c[nH]c2cccc(O)c12 : 127

Notebook: CCCNCCc1c[nH]c2cccc(O)c12 , half-life at 1 µM read as 72.6

====

The entries below are paired with their reported log10 half-life at 1 µM.
Test: Stability in rat brain homogenate
Type: in vitro ADME, male Sprague Dawley rats
Settings: male, Sprague Dawley; rat brain homogenate, 1 μM, 37° C.
Reminder: these figures are log10 of reported half-life at 1 µM, in min before transformation.

>>> test_value("C#CCNCCc1c[nH]c2cccc(O)c12")
1.97
>>> test_value("CC(C)NCCc1c[nH]c2ccc(F)c(O)c12")
1.66
>>> test_value("CNCCc1c[nH]c2cc(F)cc(O)c12")
0.96
>>> test_value("Oc1c(F)ccc2[nH]cc(CCNC3CC3)c12")
1.18
>>> test_value("Oc1cccc2[nH]cc(CCNC3CC3)c12")
1.80

Sample CCNCCc1c[nH]c2ccc(C)c(O)c12 ; log10 half-life at 1 µM observed: 1.15

// recorded log10 half-life at 1 µM for CCCNCCc1c[nH]c2ccc(F)c(O)c12 : 1.49

Measured log10 half-life at 1 µM of CCNCCc1c[nH]c2ccc(Cl)c(O)c12 : 0.96

Data point: CCNCCc1c[nH]c2cccc(O)c12 [Compound 5, 3-(2-(ethylamino)ethyl)-1H-indol-4-ol] ; log10 half-life at 1 µM = 2.20

Lookup result for NCCc1c[nH]c2cc(F)cc(O)c12 ; measured log10 half-life at 1 µM: 1.06

Value of measured log10 half-life at 1 µM for the entry CNCCc1c[nH]c2cc(C)cc(O)c12 : 0.80

====

Biological target: UniProtKB P28223
Experiment: FLIPR Ca2+ flux agonist assay at 5-HT2A
Format: cell-based
Parameters: host or cells: HEK293
Entries and their pEC50
Note on units: pEC50 is unitless, being -log10 of a concentration expressed in mol/L.

>>> test_value("C#CCNCCc1c[nH]c2cccc(O)c12")
7.70
>>> test_value("CCNCCc1c[nH]c2cc(F)cc(O)c12")
7.76
>>> test_value("CCNCCc1c[nH]c2ccc(C)c(O)c12")
7.25
>>> test_value("NCCc1c[nH]c2cccc(O)c12")
7.48
>>> test_value("CCNCCc1c[nH]c2ccc(Cl)c(O)c12")
7.98

So, CNCCc1c[nH]c2c(F)ccc(O)c12 ? Its pEC50 was 7.79

Lab book: pEC50 of CC(C)NCCc1c[nH]c2ccc(F)c(O)c12 noted as 7.34

// pEC50 lookup, compound = CCNCCc1c[nH]c2ccc(F)c(O)c12 , result: 7.98

====

Experiment: Stability in mouse brain homogenate
Format: in vitro ADME, male CD-1 mice
Conditions: male, CD-1; mouse brain homogenate, 1 μM, 37° C.
Here the recorded half-life at 1 µM is given for each entry.
Please reply with the bare figure in h and do not write the unit itself.

Consider the reported half-life at 1 µM for these molecules:
>>> test_value("CCNCCc1c[nH]c2ccc(F)c(O)c12")
0.368
>>> test_value("CCNCCc1c[nH]c2cccc(O)c12 [Compound 5, 3-(2-(ethylamino)ethyl)-1H-indol-4-ol]")
3.06

The recorded half-life at 1 µM for CNCCc1c[nH]c2ccc(F)c(O)c12 is 0.0283

For reference, reported half-life at 1 µM for NCCc1c[nH]c2cc(F)cc(O)c12 stands at 0.338

Memo: CCCNCCc1c[nH]c2ccc(F)c(O)c12 , reported half-life at 1 µM: 1.8

Per the records, this molecule ( CNCCc1cn(C(C)C)c2cc(F)cc(O)c12 ) has half-life at 1 µM equal to 4.39

So, CNCCc1c[nH]c2cc(F)cc(O)c12 ? Its half-life at 1 µM was 0.267

The recorded half-life at 1 µM for CCNCCc1c[nH]c2ccc(C)c(O)c12 is 1.17

half-life at 1 µM recorded for this molecule, Oc1cccc2[nH]cc(CCNCCF)c12 , is 2.95
